- Test system: Candida albicans ATCC 10231
- test-description: Fungicidal activity, serial dilution technique
- Type: cell-based
- run-conditions: Candida albicans, ATCC10231, Ca; average of three ± SD; - means non-active; read-out: Minimum Inhibitory Concentration (MIC), Ca
Measured MIC, listed per entry for reference.
Express it in µg/mL; write the number only.

// below: answered molecules
molecule="CCCCCCCCCCCC[P+](C(C)(C)C)(C(C)(C)C)C(C)(C)C [Compound 12a, tri-tert-butyl(n-dodecyl)phosphonium]" experimental_result=15.6
molecule="CCCCCCCCCCC[P+](C(C)(C)C)(C(C)(C)C)C(C)(C)C [Compound 11a]" experimental_result=62.5
molecule="CCCCCCCCCCCCC[P+](C(C)(C)C)(C(C)(C)C)C(C)(C)C [Compound 13a, tri-tert-butyl(n-tridecyl)phosphonium]" experimental_result=15.6
molecule="CCCCCCCCCCCCCCCCC[P+](C(C)(C)C)(C(C)(C)C)C(C)(C)C [Compound 17a]" experimental_result=1.9
molecule="CC(=O)N1CCN(c2ccc(OCC3COC(Cn4ccnc4)(c4ccc(Cl)cc4Cl)O3)cc2)CC1 (centres unmarked) [Ketoconazole, reference compound]" experimental_result=3.9
molecule="CCCCCCCCCC[P+](C(C)(C)C)(C(C)(C)C)C(C)(C)C [Compound 10a]" experimental_result=31.3
molecule="CCCCCCCCCCCCCC[P+](C(C)(C)C)(C(C)(C)C)C(C)(C)C [Compound 14a]" experimental_result=7.8

Pending molecule:
Noted for CCCCCCCCCCCCCCC[P+](C(C)(C)C)(C(C)(C)C)C(C)(C)C [Compound 15a] : its MIC reads 1.9

====

- System: Bacillus cereus ATCC 10702 NCTC 8035
- test-description: Antimicrobial activity, serial dilution technique in Mueller–Hinton Broth 2
- Format: cell-based
- run-conditions: average of three ± SD, - means non-active
- Description: The synthesized compounds were tested for antimicrobial activity against a number of Gram-positive bacteria, Staphylococcus aureus (Sa), Bacillus cereus (Bc) and Enterococcus faecalis (Ef), and Gram-negative bacteria, Escherichia coli (Ec) and Pseudomonas aeruginosa (Pa), including the methicillin-resistant strains S. aureus MRSA-1 (resistant to fluoroquinolones and beta-lactams) and MRSA-2 (resistant to beta-lactams). […]
Measured Minimum Bactericidal and Fungicidal Concentration (MBC, MFC), Bc, listed per entry for reference.
Express it in µg/mL; write the number only.

molecule="CCCCCCCCCCCC[P+](C(C)(C)C)(C(C)(C)C)C(C)(C)C [Compound 12b]" measurement_target="Bacillus cereus ATCC 10702 NCTC 8035" experimental_result=62.5
molecule="CCCCCCCCCCCCC[P+](C(C)(C)C)(C(C)(C)C)C(C)(C)C [Compound 13b]" measurement_target="Bacillus cereus ATCC 10702 NCTC 8035" experimental_result=31.3
molecule="CCCCCCCCCCCCC[P+](C(C)(C)C)(C(C)(C)C)C(C)(C)C [Compound 13a, tri-tert-butyl(n-tridecyl)phosphonium]" measurement_target="Bacillus cereus ATCC 10702 NCTC 8035" experimental_result=7.8
molecule="CCCCCCCCCC[P+](C(C)(C)C)(C(C)(C)C)C(C)(C)C [Compound 10b]" measurement_target="Bacillus cereus ATCC 10702 NCTC 8035" experimental_result=125

Noted for CCCCCCCCCCC[P+](C(C)(C)C)(C(C)(C)C)C(C)(C)C [Compound 11b] : its Minimum Bactericidal and Fungicidal Concentration (MBC, MFC), Bc reads 125

Noted for CCCCCCCCCC[P+](C(C)(C)C)(C(C)(C)C)C(C)(C)C [Compound 10a] : its Minimum Bactericidal and Fungicidal Concentration (MBC, MFC), Bc reads 31.3

Noted for CCCCCCCCCCCCCCCCCC[P+](C(C)(C)C)(C(C)(C)C)C(C)(C)C [Compound 18a] : its Minimum Bactericidal and Fungicidal Concentration (MBC, MFC), Bc reads 31.3

Noted for CCCCCCCCCCCCCC[P+](C(C)(C)C)(C(C)(C)C)C(C)(C)C [Compound 14b] : its Minimum Bactericidal and Fungicidal Concentration (MBC, MFC), Bc reads 15.6
